All values here come from ChEMBL document CHEMBL3046192.

- System: Pyricularia grisea
- TEST SUMMARY: microbe, parasite or virus in culture
- Assay type: functional
- CONDITION NOTES: ATCC 64413, 120 h
EXPERIMENTAL ENDPOINT: inhibition at 200 µg/mL (%)
I only need the number, in %, no unit after it.

Here are 10 compounds together with their reported answers.
[[record]]
input_smiles = "Cc1cccc2sc3nncn3c12"
reading_unit = "%"
test_value = 94

[[record]]
input_smiles = "Cc1n[nH]c2nc(Cc3ccccc3)sc(=O)c12"
reading_unit = "%"
test_value = 80

[[record]]
input_smiles = "Cc1nn(-c2cccc([N+](=O)[O-])c2)c2nc(C(F)(F)F)sc(=O)c12"
reading_unit = "%"
test_value = 81.1

[[record]]
input_smiles = "Cc1nn(-c2ccc(Cl)c(Cl)c2)c2nc(C(F)(F)F)sc(=S)c12"
reading_unit = "%"
test_value = 100

[[record]]
input_smiles = "Cc1nn(-c2cccc([N+](=O)[O-])c2)c2nc(C(F)(F)F)[nH]c(=S)c12"
reading_unit = "%"
test_value = 95.9

[[record]]
input_smiles = "Cc1n[nH]c2nc(-c3ccccc3)sc(=S)c12"
reading_unit = "%"
test_value = 21

[[record]]
input_smiles = "O=c1sc(-c2ccccc2)nc2cc(-c3ccccc3)nn12"
reading_unit = "%"
test_value = 15

[[record]]
input_smiles = "Cc1nn(-c2ccccc2)c2nc(C(F)(F)F)sc(=S)c12"
reading_unit = "%"
test_value = 43.8

[[record]]
input_smiles = "Cc1cc2nc(C(F)(F)F)sc(=S)n2n1"
reading_unit = "%"
test_value = 93.2

[[record]]
input_smiles = "Cc1nn(-c2cccc([N+](=O)[O-])c2)c2nc(C(F)(F)F)sc(=S)c12"
reading_unit = "%"
test_value = 100


Field: next compound
Task: Record lookup: for Pyricularia grisea, what inhibition at 200 µg/mL belongs to Cc1nn(-c2ccc(Cl)c(Cl)c2)c2nc(C(F)(F)F)[nH]c(=S)c12 ?
Output: 100

* * *

Each entry below carries its recorded inhibition at 10 µg/mL.
- Tested on: Pyricularia grisea
- TEST SUMMARY: microbe, parasite or virus in culture
- Format: functional
- CONDITION NOTES: ATCC 64413, 120 h

Here are 4 compounds together with their reported answers.
[[record]]
compound = "Cc1cccc2sc3nncn3c12 [TRICYCLAZOLE]"
test_value = "0%"

[[record]]
compound = "Cc1cc2nc(C(F)(F)F)sc(=S)n2n1"
test_value = "48.4%"

[[record]]
compound = "Cc1nn(-c2cccc([N+](=O)[O-])c2)c2nc(C(F)(F)F)[nH]c(=S)c12"
test_value = "32%"

[[record]]
compound = "Cc1cc2nc(-c3ccccc3)sc(=O)n2n1"
test_value = "92.4%"


Task: Need inhibition at 10 µg/mL of Cc1n[nH]c2nc(Cc3ccccc3)sc(=S)c12 , thanks.
Output: 73%

Task: Need inhibition at 10 µg/mL of Cc1nn(-c2ccc(Cl)c(Cl)c2)c2nc(C(F)(F)F)sc(=S)c12 , thanks.
Output: 57.7%

Task: Need inhibition at 10 µg/mL of Cc1n[nH]c2nc(-c3ccccc3)sc(=S)c12 , thanks.
Output: 14%

Task: Need inhibition at 10 µg/mL of Cc1cc2nc(C(F)(F)F)sc(=O)n2n1 , thanks.
Output: 64.5%

Task: Need inhibition at 10 µg/mL of Cc1nn(C(C)(C)C)c2nc(C(F)(F)F)[nH]c(=S)c12 , thanks.
Output: 25%
